# credit: patent US7772177B2

IC50 overview
Target: caspase-3 inhibited by linker BIR2-BIR3-RING of XIAP (Homo sapiens)
Construct: E. coli AD494 (His-caspase-3)
Sequence (P98170 93-497): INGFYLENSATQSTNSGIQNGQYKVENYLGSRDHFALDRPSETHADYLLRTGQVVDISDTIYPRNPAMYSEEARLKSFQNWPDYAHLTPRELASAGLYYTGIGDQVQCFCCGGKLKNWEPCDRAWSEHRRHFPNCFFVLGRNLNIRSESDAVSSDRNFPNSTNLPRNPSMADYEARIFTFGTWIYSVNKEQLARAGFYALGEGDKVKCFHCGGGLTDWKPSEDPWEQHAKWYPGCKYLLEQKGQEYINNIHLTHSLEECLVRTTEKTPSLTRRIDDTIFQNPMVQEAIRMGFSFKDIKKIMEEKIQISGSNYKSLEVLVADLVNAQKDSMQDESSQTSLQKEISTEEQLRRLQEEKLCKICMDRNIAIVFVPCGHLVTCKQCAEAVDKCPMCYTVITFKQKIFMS
Test: Caspase-3 linker-BIR2-BIR3-RING derepression assay

INSERT INTO assay_data (compound, quantity_measured, endpoint_value) VALUES
  ('CN[C@@H](C)C(=O)N[C@H](C(=O)N1CCC[C@H]1CN(CCc1ccccc1)C(=O)CCC(=O)O)C(C)(C)C [Compound 35]', 'IC50', '> 10 µM'),
  ('CCCC(=O)N(CCc1ccccc1)C[C@@H]1CCCN1C(=O)[C@@H](NC(=O)[C@H](C)N)C(C)C [Compound 22]', 'IC50', '> 10 µM');

What IC50 value was documented for this compound, CC(C)[C@H](NC(=O)[C@H](C)N)C(=O)N1CCC[C@H]1CN(CCc1ccccc1)C(=O)COc1ccccc1 [Compound 28] ?
> 10 µM
